Every entry's value here was drawn from paper PMC7066280.

Assay: Ivosidenib plasma PK after multiple oral doses (dose escalation)
Type: in vivo, human
Conditions: human, plasma, oral, 900 mg, glioma, 900 mg QD, cycle 2 day 1; geometric mean
PROPERTY_MEASURED: Cmax
Give me the value, and tack the unit on after it.

Give the measured Cmax of N#Cc1ccnc(N2C(=O)CC[C@H]2C(=O)N(c2cncc(F)c2)[C@H](C(=O)NC2CC(F)(F)C2)c2ccccc2Cl)c1 .
4100 ng/mL

* * *

Assay: Ivosidenib plasma PK after a single oral dose (day −3, dose escalation), LC-MS/MS, non-compartmental
Format: in vivo
Details: human, po, 900 mg, glioma, single oral 900 mg, day −3, geometric mean (geometric CV%), read-out: t1/2 (converted)
PROPERTY_MEASURED: half-life (h)
Report as a plain number; the unit h is understood.

Give the measured half-life of N#Cc1ccnc(N2C(=O)CC[C@H]2C(=O)N(c2cncc(F)c2)[C@H](C(=O)NC2CC(F)(F)C2)c2ccccc2Cl)c1 [ivosidenib] .
54.3
